Test system: RAW-Dual (murine macrophage reporter line)
Assay: NF-kB reporter (SEAP) activity fold change vs agonist alone; higher = enhanced NF-kB activity
Conditions: modulator concentration 10 µM; agonist: LPS 0.1 ug/mL
compounds and their reported NF-kB reporter
Lab note: record just the number, no unit beside it.

Recorded NF-kB reporter, per entry:
{"COMPOUND": "Oc1c(Cl)cc(Cl)cc1Sc1cc(Cl)cc(Cl)c1O", "NF-kB reporter": 0.917}
{"COMPOUND": "COc1ccc(Br)c(C(=O)N2CCOCC2CO)c1 (configuration not stated)", "NF-kB reporter": 0.963}

Lab note: next compound to report on.
**Query** Consider the compound CCn1cc(C(=O)NN)c(=O)c2cc(F)c(N3CCCCCC3)cc21 and give its measured NF-kB reporter.
**Result** 0.98

All figures here come from the supplement of paper PMC10646978.
